METRIC NAME: melting point

Example molecules with recorded melting point:
MOLECULE	melting point
CC1(C#CC2(C(F)(F)F)c3cc(Cl)ccc3NC(=O)N2C2CC2)CC1 (stereo not given)	218 to 220 °C
CC(CCCO)C1CCC2C3C(OCc4ccccc4)CC4CC(OC5CCCCO5)CCC4(C)C3CCC12C (stereo not given)	52 to 55 °C
CNC(=O)NCC(C)(C)N	150 °C
Cc1nc(-c2ccccc2Cl)n2c1nnc1ccc(N3CCCCC3)cc12	207 to 210 °C

Attention now turns to another entry.
Task: Identify the reported melting point for the following entry. CC(C)c1cc(C(=O)Nc2ccc(C(=O)O)o2)oc1C(C)C
Result: 169 to 171 °C

====

METRIC NAME: melting point

COMPOUND	REPORTED
COc1cc(OCc2ccncc2)ccc1/C=C/c1cc(/C=C/c2cc3ccccc3[nH]2)n[nH]1	124 to 134 °C
COc1c(C)cc(C)cc1C(N)=O	109 to 113 °C
COc1cc(C=Nc2cc(Cl)c(N=CN(C)C)c(Cl)c2)cc(OC)c1	133 to 135 °C
O=C(CCCCCCCCC(=O)OC1CC(c2ccccc2)N(O)C(c2ccccc2)C1)OC1CC(c2ccccc2)N(O)C(c2ccccc2)C1 (stereo not given)	138 to 158 °C
CN1CCN(C(=O)Nc2cc(Br)ccc2N2CCc3cc(Br)ccc32)CC1	118 to 120 °C
O=C(NN1CCN(C(=O)Nc2ccccc2)CC1)c1ccc(F)cc1	263 to 266 °C
O=C(O)c1ccccc1C(=O)c1ccc(Cl)cc1Cl	178 to 181 °C
O=Cc1ccc(I)nc1	141 °C

Task: Tell me melting point reported for Cc1cc(O)c(C)cc1O
Result: 60 to 62 °C

Task: Give the reported value of melting point for this record: Nc1ncnc2sc(Cc3cccnc3)c(-c3ccc(NC(=O)Nc4cccc(Cl)c4)cc3)c12
Result: 169 to 172 °C

====

Parameter: melting point. Scope: all listed entries.

Look over these answered cases.
COMPOUND	melting point
CCCCC(=O)NCCCSCCO	7 °C
Oc1ccc(-c2nc(-c3ccc(O)cc3O)nc(-c3cccn3Cc3ccccc3)n2)c(O)c1	> 275 °C
CCOC(=O)C(Cc1cscn1)NC(C)=O (racemic)	58 to 62 °C

Task: Give a short answer stating reported melting point for O=C1NCc2ccc(-c3cccc4cc(Cc5cccc(C(F)(F)F)c5)sc34)cc21 .
Result: 151 to 152 °C

Task: Return melting point (reported value) for this compound: O=Cc1ccc(OCc2ccc3ccccc3n2)cc1
Result: 69 to 72 °C

Task: Recall and state the measured melting point for Brc1ccc2c(C3CCNCC3)n[nH]c2c1 .
Result: 163 to 165 °C

Task: Respond only with melting point recorded for COc1ccc(C[C@H](C)NS(=O)(=O)c2ccccc2)cc1
Result: 74.5 to 76 °C

Task: Look up and state reported melting point for COc1ccc(Cl)cc1C(=O)NCCc1ccc(CCCCCCCC(=O)O)cc1
Result: 103 to 106 °C

Task: Determine its reported melting point: CC(C)n1nc(-c2sc(NC(=O)n3c4ccccc4c4ccccc43)nc2-c2ccccc2)ccc1=O
Result: 241 to 242 °C

Task: Provide melting point value for the following compound: COc1cc(OC)c2c(=O)[nH]c(-c3ccc(OCC(=O)O)c(OC)c3)nc2c1
Result: 275 to 277 °C

Task: Return the recorded melting point value; entry: O=C(O)CCCCCCCn1cc(-c2ccccc2)c(-c2ccccc2)n1
Result: 108 to 110 °C

Task: Please give measured melting point of the following entry: CN1C(=O)c2cscc2Nc2ccccc21
Result: 195 to 198 °C

Task: Kindly indicate its recorded melting point. Item: Nc1ccc(C(=O)N2CCCCc3sccc32)c(Cl)c1
Result: 176 to 179 °C

Task: Give melting point for O=C(OCC(=O)c1ccc(C(F)(F)F)cc1)Oc1ccccc1
Result: 134 to 135 °C

Task: State its melting point for this compound: Cc1ccnc(N2CCN(CCCCC3Sc4cc(O)ccc4NC3=O)CC2)c1 (configuration not stated)
Result: 212 °C

Task: For the compound CCOC(=O)C1CCN(c2nnc(-c3ccc(C)cc3)c(-c3ccc(C)cc3)n2)CC1 , give its reported melting point.
Result: 102 to 104 °C

Task: Kindly indicate its recorded melting point. Item: Cc1ccnc2c1C(=O)CC(c1cc(F)ccc1F)C2 (configuration not stated)
Result: 75 to 76 °C

Task: Name the recorded melting point of the compound listed here: CCOC(=O)c1cn(C(C)(C)C)c2nc(F)c(Cl)cc2c1=O
Result: 155 °C

Task: Supply recorded melting point for CCCCc1nc2cnc3ccccc3c2n1CC1(O)CCOCC1 here.
Result: 180 to 181 °C

Task: Please give the documented melting point of S=c1[nH]c2cc(Cl)cc(OCCNCc3ccccc3)c2[nH]1
Result: > 250 °C

Task: Determine from records and report melting point for Nc1c([N+](=O)[O-])sc2ccc(C(F)(F)F)cc12
Result: 198 to 201 °C

Task: Identify the reported melting point for the following entry. C=CC1CCC2c3ccc(OCC)c(F)c3OC2C1 (configuration not stated)
Result: 141 °C
